Assay: Brain penetration (brain:plasma ratio of drug levels) after acute and repeated dosing
Type: in vivo
Settings: rodents, acute and repeated dosing, read-out: brain:plasma (b:p) ratio for drug levels
readout: Kp

For O=C(NO)c1ccc(C2=Nc3ccccc3Oc3ccccc32)cc1 [Compound 1] , what is its reported Kp?
~5

---

Test: Brain penetration (brain:plasma ratio of drug levels) after acute and repeated dosing
Format: in vivo
Conditions: rodents, acute dosing experiments, read-out: brain:plasma (b:p) ratio
readout: Kp

Which Kp reading was recorded for the compound `O=C(CCCCCCC(=O)Nc1ccccc1)NO` ?
~0.1
